# Read-out: Urokinase-type plasminogen activator receptor (uPAR), PLAUR (gene 5329)
# protocol-notes: BSK_BE3C_uPAR: BioMAP Diversity Plus: BE3C Assay for Urokinase-type plasminogen activator receptor (uPAR) Biomarker Activity (AID 2283039)
# condition-context: primary human bronchial epithelial cells; actives raise or lower the signal
# Description: BSK_BE3C is a cell-based, multiplexed-readout assay that uses bronchial epithelial cell, a human lung primary cell, with measurements taken at 24 hours after chemical dosing in a 96-well plate.BSK_BE3CAR is an assay component measured in the BSK_BE3C assay. It measures uPAR antibody related to regulation of gene expression using ELISA technology.Data from the assay component BSK_BE3CAR was analyzed into 1 assay endpoint. […]
The source made the active and inactive calls. Rule for the calls: active = hit-call score of the fitted dose curve at least 0.9, where 1 is the maximum; inactive = score below 0.9.
Pick from active, inactive when you respond.

{"compound": "CN(C)NC(=O)CCC(=O)O", "class-name": "inactive"}

query: I would be grateful if you could indicate the recorded call for `Cc1ccn2nc(S(=O)(=O)Nc3c(F)cccc3F)nc2n1` .
result: inactive

query: Then this compound: COP(=O)(OC)C(O)C(Cl)(Cl)Cl (stereo not given)
result: active

query: Ok, now CCOP(=O)(NC(C)C)Oc1ccc(SC)c(C)c1 (stereo not given)
result: active

query: Then this compound: `CCCCSP(=O)(SCCCC)SCCCC`
result: inactive

---

# Read-out: CYP3A5 (gene 1577)
# protocol-notes: LTEA_HepaRG_CYP3A5: Life Technologies and Expression Analysis (LTEA) Assay for CYP3A5 using HepaRG (AID 2283493)
# condition-context: mRNA level, 48 h; actives raise or lower the signal
Active and inactive are the calls of the source. The calls were made as follows: active = hit-call score of the fitted dose curve at least 0.9, where 1 is the maximum; inactive = score below 0.9.
I would appreciate it if you answered using one of these outcomes: YES for active, NO for inactive

Answered examples (3):
{"compound": "COP(=O)(NC(C)=O)SC (centres undefined)", "class-name": "NO"}
{"compound": "CC[C@H](C)[C@H]1O[C@]2(C=C[C@@H]1C)C[C@@H]1C[C@@H](C/C=C(\\C)[C@@H](O[C@H]3C[C@H](OC)[C@@H](O[C@H]4C[C@H](OC)[C@@H](NC)[C@H](C)O4)[C@H](C)O3)[C@@H](C)/C=C/C=C3\\CO[C@@H]4[C@H](O)C(C)=C[C@@H](C(=O)O1)[C@]34O)O2", "class-name": "YES"}
{"compound": "CC1(C(=O)Nc2ccc(O)c(Cl)c2Cl)CCCCC1", "class-name": "NO"}

Note: attention shifts to another entry.
query: I'd appreciate the recorded outcome for `CN(C)NC(=O)CCC(=O)O` from this test.
result: NO

---

# protocol-notes: CCTE_Shafer_MEA_acute_cross_correlation_HWHM: CCTE's Neural Acute Assay for Cross Correlation at Half Width at Half Maximum, Shafer Lab (AID 2284026);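 note: percent change per well from pre-dose baseline in spike cross-correlogram half width; hits are a decrease in cross-correlogram half width relative to DMSO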
Active and inactive are the calls of the source. Rule for the calls: active = hit-call score of the fitted dose curve at least 0.9, where 1 is the maximum; inactive = score below 0.9.
Thanks in advance; please answer with one of these: active, inactive

Some entries whose results are on file:
{"compound": "CN(C)NC(=O)CCC(=O)O", "class-name": "inactive"}
{"compound": "COP(=O)(NC(C)=O)SC (centres undefined)", "class-name": "inactive"}
{"compound": "CC(C)=CC1C(C(=O)OCN2C(=O)C3=C(CCCC3)C2=O)C1(C)C (centres undefined)", "class-name": "active"}
{"compound": "COP(=O)(OC)C(O)C(Cl)(Cl)Cl (centres undefined)", "class-name": "active"}
{"compound": "CCc1cnc(C2=NC(C)(C(C)C)C(=O)N2)c(C(=O)O)c1 (centres undefined)", "class-name": "inactive"}
{"compound": "CN1COCN(Cc2cnc(Cl)s2)C1=N[N+](=O)[O-]", "class-name": "inactive"}
{"compound": "CCCOCC(=Nc1ccc(Cl)cc1C(F)(F)F)n1ccnc1", "class-name": "active"}
{"compound": "CCOP(=S)(OCC)Oc1ccc2c(C)c(Cl)c(=O)oc2c1", "class-name": "active"}
{"compound": "Nc1c(Cl)cc([N+](=O)[O-])cc1Cl", "class-name": "inactive"}
{"compound": "N#CSCSC#N", "class-name": "inactive"}

query: Status in this test for `CC1=NNC(=O)N(/N=C/c2cccnc2)C1` ?
result: inactive

Cited source: PubChem BioAssay (EPA / NIEHS)
